Numbers sourced from patent US11028090B2.

// IC50 lookup, one value per entry
study target: BRD4 (BD1+BD2) bromodomain (Homo sapiens (Human), UniProt O60885)
experiment notes: BRD4 binding inhibition (AlphaScreen, GST-BRD4 vs tetraacetylated histone H4 peptide)
reported conditions: GST-BRD4 (BD1+BD2) / biotinylated acetyl-histone H4 (Lys5,8,12,16) peptide; read-out: IC50, BRD4 binding inhibition

record smiles	IC50
CCc1nnc2c(NCCCCNC(=O)OCC(C)C)nc3cc(OC)c(OC)cc3n12	≤ 50 nM
Cc1nnc2c(NCCCCNC(=O)[C@H](O)C(C)C)nc3cc(-c4nc5ccccc5[nH]4)ccc3n12	≤ 10 nM
CCOc1ccc2c(c1)nc(NCCCCNC(=O)OC(C)(C)C)c1nnc(C)n12	≤ 10 nM
Cc1nnc2c(NCCCCNC(=O)c3ccccc3)nc3ccc(OC(F)(F)F)cc3n12	≤ 50 nM
COCCOc1ccc2c(c1)nc(NCCCCNC(=O)OC(C)C)c1nnc(C)n12	≤ 50 nM
COCCOc1ccc2c(c1)nc(NCCCCNC(=O)c1ccccc1)c1nnc(C)n12	≤ 50 nM
COc1c(C)ccc2c1nc(NCCCCNC(=O)[C@@H](O)C(C)C)c1nnc(C)n12	≤ 10 nM
Cc1noc(C)c1-c1ccc2nc(NCCCCNC(=O)[C@H](O)C(C)C)c3nnc(C)n3c2c1	≤ 50 nM
Cc1nnc2c(NCCCCNC(=O)C(C)(C)C)nc3cc4c(cc3n12)OCCO4	≤ 50 nM
Cc1nnc2c(NCCCCNC(=O)OC(C)C)nc3cc4c(cc3n12)OCCO4	≤ 50 nM
Cc1nnc2c(NCCCCNC(=O)Cc3cccs3)nc3cc(N4CCOCC4)ccc3n12	≤ 50 nM
Cc1nnc2c(NCCCCNC(=O)OC(C)(C)C)nc3cc(C(=O)NC(C)(C)C)ccc3n12	≤ 50 nM
COc1cc2nc(NCCCCNC(=O)OCC(C)C)c3nnc(C)n3c2cc1C(F)(F)F	≤ 50 nM
Cc1nnc2c(NCCCCNC(=O)[C@@H](NC(=O)OC(C)(C)C)C(C)C)nc3cc(N4C[C@@H](C)O[C@@H](C)C4)ccc3n12	≤ 50 nM
Cc1nnc2c(NCCCCNC(=O)[C@H](O)C(C)C)nc3cc(-c4nc5ccccc5n4C)ccc3n12	≤ 50 nM
COc1ccc2c(c1)nc(NCCCCNC(=O)SC(C)C)c1nnc(C)n12	≤ 50 nM
Cc1nnc2c(NCCCCNC(=O)CC(C)C)nc3cc(NS(C)(=O)=O)ccc3n12	≤ 10 nM
Cc1nnc2c(NCCCCNC(=O)CC(C)C)nc3ccc(NCCCC#N)cc3n12	≤ 50 nM
COCCOc1ccc2c(c1)nc(NCCCCNC(=O)C(C)(C)C)c1nnc(C)n12	≤ 50 nM
Cc1nnc2c(NCCCCNC(=O)Cc3cccs3)nc3cc(OCCN4CCOCC4)ccc3n12	≤ 50 nM
COc1cc(C(F)(F)F)cc2c1nc(NCCCCNC(=O)OC(C)C)c1nnc(C)n12	≤ 50 nM
COCCOc1ccc2c(c1)nc(NCCCCNC(=O)c1ccncc1)c1nnc(C)n12	≤ 50 nM
COc1ccc2nc(NCCCCNC(=O)CC(C)(C)C)c3nnc(C)n3c2c1	≤ 50 nM
COc1cc2nc(NCCCCNC(=O)[C@H](O)C(C)C)c3nnc(C)n3c2cc1C(F)(F)F	≤ 50 nM
COCCOc1ccc2c(c1)nc(NCCCCNC(=O)c1cccc(F)c1)c1nnc(C)n12	≤ 50 nM
COc1cc2nc(NCCCCNC(=O)OC(C)(C)C)c3nnc(C)n3c2cc1OC	≤ 50 nM
COCCOc1ccc2c(c1)nc(NCCCCNC(=O)[C@@H](NC(=O)OC(C)C)C(C)C)c1nnc(C)n12	≤ 10 nM
